Hello, the source for this data is patent US20250376519A1, in case you need it.

# assayed.system: T1, human DLL3 (ACRO, DLL3-H52H4) (human, UniProt Q9NYJ7 27-492)
# T1 construct: Bought
# T1 sequence: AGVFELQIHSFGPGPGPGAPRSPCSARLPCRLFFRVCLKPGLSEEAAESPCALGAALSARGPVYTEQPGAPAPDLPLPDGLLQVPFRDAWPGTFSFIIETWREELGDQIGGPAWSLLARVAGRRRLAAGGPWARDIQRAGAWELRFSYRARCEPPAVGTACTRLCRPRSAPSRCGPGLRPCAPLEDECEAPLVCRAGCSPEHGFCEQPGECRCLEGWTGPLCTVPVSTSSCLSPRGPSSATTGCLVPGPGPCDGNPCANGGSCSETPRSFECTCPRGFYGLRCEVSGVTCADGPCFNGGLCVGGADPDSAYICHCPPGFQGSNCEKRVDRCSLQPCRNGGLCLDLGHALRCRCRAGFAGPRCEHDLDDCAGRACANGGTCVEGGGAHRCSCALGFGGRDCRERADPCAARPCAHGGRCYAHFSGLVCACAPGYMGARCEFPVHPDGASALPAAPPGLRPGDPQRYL
# assay.text: SPR Biacore 8K, Ab captured on Protein A
Classify by measured kon: 1 if it is equal to or exceeds 500000 M⁻¹ s⁻¹, 0 if it is smaller.

- binder: "hu30L1H11 (antibody, human IgG1, kappa, V domains shown) VH: EVRLVQFGAVVKKPGASVKVSCKASGYTFTDYYMNWVRQAPGQSLEWMGIINPYTGDTSYNQKFRGRVTLTVDKSSSTAYMELSSLTSEDTAVYYCARYHYGPHLEGYFDVWGQGTTVTVSS VL: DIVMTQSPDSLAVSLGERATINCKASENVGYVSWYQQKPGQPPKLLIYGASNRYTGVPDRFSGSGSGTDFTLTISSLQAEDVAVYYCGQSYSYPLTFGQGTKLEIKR"
  category: 0
- binder: "hu30L1H1 (antibody, human IgG1, kappa, V domains shown) VH: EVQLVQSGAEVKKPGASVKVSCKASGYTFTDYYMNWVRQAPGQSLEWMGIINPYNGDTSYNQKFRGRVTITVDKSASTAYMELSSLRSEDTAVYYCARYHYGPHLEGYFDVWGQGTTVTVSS VL: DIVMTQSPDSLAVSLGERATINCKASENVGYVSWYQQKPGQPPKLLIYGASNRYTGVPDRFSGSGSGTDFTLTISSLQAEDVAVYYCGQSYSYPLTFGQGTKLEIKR"
  category: 1
- binder: "hu110L1H5 (antibody, human IgG1, kappa, V domains shown) VH: EVQLVQSGAEVKKPGASVKVSCKTSGYTFTDYYMNWVRQAPGQSLEWMGIINPYTGGTSYTQKFKGRVTITVDKSASTAYMELSSLRSEDTAVYYCARHFYDSSYLTYSTMDYWGQGTTVTVSS VL: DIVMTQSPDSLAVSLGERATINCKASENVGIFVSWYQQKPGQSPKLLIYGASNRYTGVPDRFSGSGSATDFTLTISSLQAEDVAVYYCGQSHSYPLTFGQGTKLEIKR"
  category: 0
- binder: "hu110L2H6 (antibody, human IgG1, kappa, V domains shown) VH: EVQLVQSGAEVKKPGASVKVSCKTSGYTFTDYYMNWVRQAPGQSLEWMGIINPYNVGTSYTQKFKGRVTITVDKSASTAYMELSSLRSEDTAVYYCARHFYDSSYLTYSTMDYWGQGTTVTVSS VL: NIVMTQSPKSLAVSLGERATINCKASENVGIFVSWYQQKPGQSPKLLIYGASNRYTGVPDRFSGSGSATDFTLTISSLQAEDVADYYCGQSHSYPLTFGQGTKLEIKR"
  category: 0

Field: next binder
Exercise: Check this binder for kon at or above 500000 M⁻¹ s⁻¹: hu30L3H4 (antibody, human IgG1, kappa, V domains shown) VH: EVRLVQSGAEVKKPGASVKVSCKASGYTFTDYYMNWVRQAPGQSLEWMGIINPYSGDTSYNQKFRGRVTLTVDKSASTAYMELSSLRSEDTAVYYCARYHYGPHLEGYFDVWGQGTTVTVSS VL: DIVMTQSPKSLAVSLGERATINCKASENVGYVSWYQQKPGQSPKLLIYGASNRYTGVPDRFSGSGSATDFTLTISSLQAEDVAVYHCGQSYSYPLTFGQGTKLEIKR
Solution: 1
